Molecular target: Microphthalmia-associated transcription factor (Homo sapiens)
Test: MITF inhibitors, potency by titration, dose response, biochemical, AlphaScreen, human (AID 1259371)
Conditions: AlphaScreen biochemical MITF assay, signal inhibition
Calls of active or inactive are those of the source. How the calls were made is not given here.
parameter-measured: IC50

Solved entries:
# compound, readout-value
rows = [
    ("O=C(N/N=C/C=C/c1ccco1)c1ccncc1", "24.5 nM"),
    ("Cc1ccc(COc2ccc(/C=N/N=C3\\NC(=O)C(CC(=O)O)S3)cc2)cc1 (stereo unspecified)", "inactive"),
    ("Cc1cc(C)n2nc(N)c(N)c2n1", "> 11600 nM (inactive)"),
    ("C/C(N)=C(/C#N)C(=O)COC(=O)c1c2c(nc3ccccc13)/C(=C/c1ccco1)CC2", "443 nM"),
    ("O=C(NCC(O)C(=O)N1CCOCC1)c1cccc(Nc2ccc3[nH]ncc3c2)n1 (stereo unspecified)", "inactive"),
]

Below: the item to evaluate.
N#CC(C#N)=Cc1cccn1-c1ccc(C(=O)O)cc1 yielded IC50 of inactive
